All figures here come from ChEMBL document CHEMBL1127492.

- Species on record: Rattus norvegicus
- Protocol description: Negative logarithm of the concentration causing a 100% inhibition of spontaneous mechanical activity in rat portal vein is determined in vitro
- Format: functional
Where pEC100 equals or exceeds 5, the correct label is label 1; where it does not, the label is label 0.

Here are 4 compounds together with their reported answers.
Prompt line: Quick check, pEC100 >= 5? "CCCC/N=C(\S)Nc1cnccc1N"
Response line: label 0

Prompt line: Please answer likewise for "C[C@]12CC[C@H](C[C@H]1NC(=S)Nc1ccc(N)nc1)C2"
Response line: label 1

Prompt line: Please answer likewise for "CC(C)(C)/N=C(\NC#N)Nc1ccc(N)[n+]([O-])c1"
Response line: label 0

Prompt line: Please answer likewise for Nc1ccc(N/C(S)=N/C2CC3CCC2CC3)cn1 (centres undefined)
Response line: label 1

***
Prompt line: Quick check, pEC100 >= 5? CC(N/C(=N\C#N)Nc1ccncc1)C(C)(C)C (centres undefined) [PINACIDIL ANHYDROUS]
Response line: label 1

Prompt line: Please answer likewise for "C[C@]12CC[C@H](C[C@@H]1NC(=NC#N)Nc1ccc(N)[n+]([O-])c1)C2"
Response line: label 1

Prompt line: Please answer likewise for N#CN/C(=N\C1CC2CCC1CC2)Nc1ccc(N)nc1 (centres undefined)
Response line: label 1

Prompt line: Please answer likewise for Nc1ccc(NC(=S)NC2C[C@H]3CC[C@@H]2C3)cn1 (single isomer, unassigned; 22g)
Response line: label 1

Prompt line: Please answer likewise for "N#CN=C(Nc1ccc(N)[n+]([O-])c1)N[C@@H]1C[C@H]2CC[C@@H]1C2"
Response line: label 1

---

- Organism: Rattus norvegicus
- Protocol description: Negative logarithm of the concentration causing a 100% inhibition of spontaneous mechanical activity in rat portal vein is determined in vitro; No response
- Type: functional
The source made the active and inactive calls. The rule behind the calls is not given here.
Result type: pEC100

# example entries with known answers
Prompt line: Would you mind telling me what pEC100 value was observed for CC(/N=C(\S)Nc1ccc(N2CCCCC2)nc1)C(C)(C)C (stereo not given) ?
Response line: inactive

Prompt line: Please answer likewise for CC(/N=C(\S)Nc1ccc(Nc2ccccc2)nc1)C(C)(C)C (stereo not given)
Response line: inactive

Prompt line: Please answer likewise for CC(/N=C(\S)Nc1ccc(NCCN)nc1)C(C)(C)C (stereo not given)
Response line: inactive

Prompt line: Please answer likewise for "CC(C)(C)[C@H]1CC[C@@H](/N=C(\S)Nc2ccc(N)nc2)CC1"
Response line: inactive

***
Prompt line: Would you mind telling me what pEC100 value was observed for "C/N=C(\S)Nc1cnccc1N" ?
Response line: inactive

---

- Tested on: Rattus norvegicus
- Protocol description: Maximum percent fall in Systolic blood pressure (SBP) was measured in anesthetized normotensive rat for 30 mins after intravenous (iv) injection at 0.1 mg/kg dose
- Assay type: functional
# Lookup of reported Decrease in SBP keyed by entry
Reply with just the number (in %).

Prompt line: Would you mind telling me what Decrease in SBP value was observed for "C[C@]12CC[C@H](C[C@H]1NC(=S)Nc1ccc(N)nc1)C2" ?
Response line: 27

Prompt line: Please answer likewise for CC(/N=C(\S)Nc1ccc(C#N)nc1)C(C)(C)C (stereo unspecified)
Response line: 13

Prompt line: Please answer likewise for "CC1(C)[C@@H]2CC[C@@]1(C)[C@H](NC(=S)Nc1ccc(N)nc1)C2"
Response line: 14

Prompt line: Please answer likewise for Nc1ccc(N/C(S)=N/C2CC3CCC2CC3)cn1 (stereo unspecified)
Response line: 26

Prompt line: Please answer likewise for Nc1ccc(NC(=S)NC2C[C@H]3CC[C@@H]2C3)cn1 (single isomer, unassigned; 22e)
Response line: 19

---

- System: Rattus norvegicus
- Protocol description: Maximum percent fall in Systolic blood pressure (SBP) was measured in anesthetized normotensive rat for 30 mins after intravenous (iv) injection at 3 mg/kg dose
- Assay type: functional
Label condition met when Decrease in SBP is strictly below 20%; otherwise label condition not met.

Here are 5 compounds together with their reported answers.
Prompt line: Find out if reported Decrease in SBP for "C/N=C(\S)Nc1cnccc1N" is less than 20%
Response line: condition met

Prompt line: Please answer likewise for "CC1(C)[C@H]2CC[C@](C)(C2)[C@H]1NC(=S)Nc1ccc(N)nc1"
Response line: condition not met

Prompt line: Please answer likewise for "Nc1ccncc1/N=C(\S)NC1CCCCC1"
Response line: condition not met

Prompt line: Please answer likewise for "CCCC/N=C(\S)Nc1cnccc1N"
Response line: condition met

Prompt line: Please answer likewise for COc1ccc(N/C(S)=N/C(C)C(C)(C)C)cn1 (stereo unspecified)
Response line: condition not met

***
Prompt line: Find out if reported Decrease in SBP for CC(/N=C(\S)Nc1ccc(NN)nc1)C(C)(C)C (stereo unspecified) is less than 20%
Response line: condition not met

Prompt line: Please answer likewise for "Nc1cncc(N/C(S)=N/C2CCCCC2)c1"
Response line: condition not met

Prompt line: Please answer likewise for CC(/N=C(\S)Nc1ccc(-n2ccnc2)nc1)C(C)(C)C (stereo unspecified)
Response line: condition met

Prompt line: Please answer likewise for "Nc1ncccc1/N=C(\S)NC1CCCCC1"
Response line: condition not met

Prompt line: Please answer likewise for "Nc1ccc(N/C(S)=N/C2CCCCC2)cn1"
Response line: condition not met

---

- Organism: Rattus norvegicus
- Protocol description: Negative logarithm of the concentration causing a 100% inhibition of spontaneous mechanical activity in rat portal vein is determined in vitro
- Assay type: functional
# Lookup of reported pEC100 keyed by entry
Simply state the number, no unit and no words.

Prompt line: Would you mind telling me what pEC100 value was observed for "Nc1ccncc1/N=C(\S)NC1CCCCC1" ?
Response line: 5

Prompt line: Please answer likewise for "C[C@@H]1[C@H](NC(=S)Nc2ccc(N)nc2)CC2C[C@@H]1C2(C)C"
Response line: 5

Prompt line: Please answer likewise for "Nc1ncccc1/N=C(\S)NC1CCCCC1"
Response line: 4

Prompt line: Please answer likewise for CC(/N=C(\S)Nc1ccc(C(N)=O)nc1)C(C)(C)C (stereo not given)
Response line: 5

Prompt line: Please answer likewise for C[C@]12CC[C@H](CC1/N=C(\NC#N)Nc1ccc(N)nc1)C2 (stereo not given in full)
Response line: 7.5

Prompt line: Please answer likewise for CC(/N=C(\S)Nc1ccc(NN)nc1)C(C)(C)C (stereo not given)
Response line: 4

Prompt line: Please answer likewise for "Nc1cncc(N/C(S)=N/C2CCCCC2)c1"
Response line: 5

Prompt line: Please answer likewise for "Nc1ccc(N/C(S)=N/C2CCCCC2)cn1"
Response line: 5

Prompt line: Please answer likewise for CC(/N=C(\S)Nc1ccc(-n2ccnc2)nc1)C(C)(C)C (stereo not given)
Response line: 3.7

Prompt line: Please answer likewise for "CCC(C)(C)/N=C(\S)Nc1ccc(N)nc1"
Response line: 5

Prompt line: Please answer likewise for "CC1(C)CCC[C@H](/N=C(\S)Nc2ccc(N)nc2)C1"
Response line: 5

Prompt line: Please answer likewise for CNc1ccc(N/C(S)=N/C(C)C(C)(C)C)cn1 (stereo not given)
Response line: 5

Prompt line: Please answer likewise for CC(C)(C)C1CCCCC1/N=C(\S)Nc1ccc(N)nc1 (single isomer, unassigned)
Response line: 5

Prompt line: Please answer likewise for Cc1ccc(N/C(S)=N/C(C)C(C)(C)C)cn1 (stereo not given)
Response line: 5.7

Prompt line: Please answer likewise for "N#CN/C(=N\[C@H]1C[C@H]2CC[C@@H]1C2)Nc1ccc(N)nc1"
Response line: 6.5

---

- Test system: Rattus norvegicus
- Protocol description: Maximum percent fall in Systolic blood pressure (SBP) was measured in anesthetized normotensive rat for 30 mins after intravenous (iv) injection at 0.1 mg/kg dose
- Assay type: functional
Result type: Decrease in SBP (%)
Reply with just the number (in %).

Prompt line: Would you mind telling me what Decrease in SBP value was observed for CC(N/C(=N\C#N)Nc1ccncc1)C(C)(C)C (stereo unspecified) [PINACIDIL ANHYDROUS] ?
Response line: 25

Prompt line: Please answer likewise for Nc1ccc(N/C(S)=N/[C@H]2CC3C=CC2C3)cn1 (stereo partly specified)
Response line: 24

Prompt line: Please answer likewise for "N#CN/C(=N\[C@H]1C[C@H]2CC[C@@H]1C2)Nc1ccc(N)nc1"
Response line: 25

---

- Test system: Rattus norvegicus
- Protocol description: Maximum percent fall in Systolic blood pressure (SBP) was measured in anesthetized normotensive rat for 30 mins after intravenous (iv) injection at 0.1 mg/kg dose
- Type: functional
Result type: Decrease in SBP (%)
Reply with just the number (in %).

Prompt line: I'm curious: which Decrease in SBP was measured for N#CN/C(=N\C1CC2CCC1CC2)Nc1ccc(N)nc1 (stereo not drawn) tested on Rattus norvegicus?
Response line: 17

***
Prompt line: I'm curious: which Decrease in SBP was measured for CC(/N=C(/NC#N)Nc1cccnc1)C(C)(C)C (stereo not drawn) tested on Rattus norvegicus?
Response line: 37

Prompt line: Please answer likewise for C[C@]12CC[C@H](CC1/N=C(\NC#N)Nc1ccc(N)nc1)C2 (stereo partly drawn)
Response line: 26
